system: A-375; assay: Cytotoxic activity against human A375 cells; type: functional, cell-based; details: Homo sapiens, A-375; read-out: IC50
measured.property: IC50 (µM)
Numbers only, in µM.

In: Tell me the measured IC50 of `O=C(N[C@@H](CCCn1cc(-c2ccc(C(F)(F)F)cc2)nn1)C(=O)O)OCC1c2ccccc2-c2ccccc21` , please.
Out: 49.3

Where do the numbers come from? From ChEMBL document CHEMBL3627641.
